Origin of values: paper PMC7351026

Assay: PFAS levels in serum samples of airport employees (LC/MS/MS)
Conditions: employees participated in first blood sampling and repeated blood and urine sampling, N=17
measurement label: PFAS in first serum sample, median (range)

molecule	measured value
O=S(=O)(O)C(F)(F)C(F)(F)C(F)(F)C(F)(F)C(F)(F)C(F)(F)C(F)(F)F	1.6 (0.49–6.2) ng/mL
O=S(=O)(O)C(F)(F)C(F)(F)C(F)(F)C(F)(F)C(F)(F)F	7.6 (3.6–17) ng/mL
O=S(=O)(O)C(F)(F)C(F)(F)C(F)(F)C(F)(F)C(F)(F)C(F)(F)C(F)(F)C(F)(F)F	11 (5.5–28) ng/mL
O=S(=O)(O)C(F)(F)C(F)(F)C(F)(F)C(F)(F)C(F)(F)C(F)(F)F	133 (21–402) ng/mL
O=S(=O)(O)C(F)(C(F)(F)F)C(F)(F)C(F)(F)C(F)(F)C(F)(F)C(F)(F)C(F)(F)F (centres unmarked) [1m-PFOS, perfluoro-1-methylheptanesulfonate]	1.0 (0.32–4.1) ng/mL

Challenge: Which PFAS in first serum sample, median (range) is reported for this molecule? O=C(O)C(F)(F)C(F)(F)C(F)(F)C(F)(F)C(F)(F)C(F)(F)F
Response given: 0.53 (0.20–2.2) ng/mL

Challenge: Consider next the molecule O=C(O)C(F)(F)C(F)(F)C(F)(F)C(F)(F)C(F)(F)F in the same way.
Response given: 0.37 (0.16–0.92) ng/mL

Challenge: Consider next the molecule O=C(O)C(F)(F)C(F)(F)C(F)(F)C(F)(F)C(F)(F)C(F)(F)C(F)(F)F in the same way.
Response given: 13 (5.0–31) ng/mL
